# ASSAY OVERVIEW: Cytotoxicity, MT-4 cells without virus, MTT
# Format: cell-based
# EXPERIMENTAL CONTEXT: human, mt-4 cells
Listed compounds paired with reported CC50 at 120 h

Before answering, review these 4 worked examples.
                                   compound          data_value
0  c1ccc(COCn2cncc2Sc2ccccc2)cc1 [Compound I-5]    12.5 to 25 µg/mL
1  CCOCn1c(C)nc(C(C)C)c1Cc1cc(Cl)cc(Cl)c1 [Compound I-67]  6.25 to 12.5 µg/mL
2  Cc1nc(C(C)C)c(Cc2ccccc2)n1COCc1ccccc1 [Compound I-42]   3.1 to 6.25 µg/mL
3  CCOCn1c(C)nc(Cc2cc(Cl)cc(Cl)c2)c1C(C)C [Compound I-90]       1 to 10 µg/mL

# input for lookup
I am curious: what CC50 at 120 h value has been reported for CCc1nc(C)n(COCCO)c1Sc1cc(C)cc(C)c1 [Compound I-29] ? 25 to 50 µg/mL

----------
# ASSAY OVERVIEW: Cytotoxicity, MT-4 cells without virus, MTT
# Assay type: cell-based
# EXPERIMENTAL CONTEXT: human, mt-4 cells
MEASURED PROPERTY: CC50 at 120 h

Reference set (3 entries):
                               smiles_entry  measured_property        data_value
0            CCOCn1c(C)nc(C(C)C)c1Sc1ccccc1      CC50 at 120 h    25 to 50 µg/mL
1  Cc1nc(Cc2cc(Cl)cc(Cl)c2)c(C(C)C)n1COCc1ccccc1      CC50 at 120 h   10 to 100 µg/mL
2           CCc1ncn(COCc2ccccc2)c1Sc1ccccc1      CC50 at 120 h  12.5 to 25 µg/mL

Data request, read-out CC50 at 120 h, for CCCc1nc(Br)n(COCc2ccccc2)c1Sc1ccccc1 12.5 to 25 µg/mL

----------
# ASSAY OVERVIEW: Cytotoxicity, MT-4 cells without virus, MTT
# Format: cell-based
# EXPERIMENTAL CONTEXT: human; 50% cytotoxicity; MT-4 cells without virus, 5-day incubation, MTT; read-out: CC50
MEASURED PROPERTY: CC50 at 120 h

Bench note: what CC50 at 120 h did CC(C)=CCN1Cc2cc(Cl)cc3[nH]c(=S)n(c23)C[C@@H]1C [TIBO (R-82913), reference compound] show? 12.5 to 25 µg/mL

----------
Below is a list of entries, each paired with its recorded CC50 at 120 h value.
# ASSAY OVERVIEW: Cytotoxicity, MT-4 cells without virus, MTT
# Assay type: cell-based
# EXPERIMENTAL CONTEXT: human, mt-4 cells

A selection of reference data follows.
In [3]: df
Out[3]:
                               smiles_entry          data_value
0  CCc1nc(C)n(COCc2ccccc2)c1Sc1cc(C)cc(C)c1      10 to 20 µg/mL
1  Cc1cc(C)cc(Cc2c(C(C)C)nc(C)n2COCc2ccccc2)c1  6.25 to 12.5 µg/mL
2      CCOCn1c(C)nc(Cc2cc(F)cc(F)c2)c1C(C)C    12.5 to 25 µg/mL
3         CCOCn1c(C)nc(CC)c1Sc1cc(C)cc(C)c1      10 to 20 µg/mL
4       CCc1nc(Br)n(COCc2ccccc2)c1Sc1ccccc1    12.5 to 25 µg/mL
5          CCCc1ncn(COCc2ccccc2)c1Sc1ccccc1    12.5 to 25 µg/mL
6  Cc1nc(Cc2cc(F)cc(F)c2)c(C(C)C)n1COCc1ccccc1  6.25 to 12.5 µg/mL
7            CCOCn1c(C)nc(C(C)C)c1Cc1cccnc1         > 100 µg/mL

Please look at the following compound next.
What does the record list as CC50 at 120 h for Cc1nc(C(C)C)c(Cc2cc(F)cc(F)c2)n1COCc1ccccc1 ? 6.25 to 12.5 µg/mL
